biological target: T163A Rho-MatB (Rhodopseudomonas palustris, UniProt Q6ND88, C106A/K488A/Q457C/R286C/T163A); construct: His6-tag, Rho-MatB background, two tetramethylrhodamines (5-IATR); test: Survey fluorescence titration of tetramethylrhodamine-labelled MatB variants with ATP in 50 mM Tris.HCl pH 7.5, 150 mM NaCl, 10 mM MgCl2, 0.3 mg/ml BSA, 20°C, without full optimization of labelling and purification.
experimental-readout: Kd (µM)
Just the number in µM, nothing appended.

Task: Item: Nc1ncnc2c1ncn2[C@@H]1O[C@H](COP(=O)(O)OP(=O)(O)OP(=O)(O)O)[C@@H](O)[C@H]1O [ATP, adenosine 5'-triphosphate] Test system: T163A Rho-MatB (Rhodopseudomonas palustris, UniProt Q6ND88, C106A/K488A/Q457C/R286C/T163A) Read-out: Kd Value: ?
Output: 297
